Assay: Cytotoxicity to host cells, Vero E6
Format: cell-based
Conditions: African green monkey
MEASUREMENT KIND: CC50

>>> print(df.to_string())
                           smiles_structure  value_measured
0  CN1CCN(C(=O)N[C@@H](Cc2ccccc2)C(=O)N[C@H](/C=C/S(=O)(=O)c2ccccc2)CCc2ccccc2)CC1         > 10 µM

* * *

Test: Cytotoxicity to host cells, Calu-3
Type: cell-based
Details: human, Calu-3 cells
MEASUREMENT KIND: CC50

                           smiles_structure  value_measured
0  CN1CCN(C(=O)N[C@@H](Cc2ccccc2)C(=O)N[C@H](/C=C/S(=O)(=O)c2ccccc2)CCc2ccccc2)CC1         > 10 µM
